# System: OCI-AML3
# assay.protocol: area under dose-response curve (cell viability) (AUC (arbitrary, % viability x log concentration)); higher = less sensitive (more viable)
# test.context: 4 days
observed.property: area under dose-response curve

O=C(NC[C@H](O)CO)c1ccncc1Nc1ccc(I)cc1F    150
CN(Cc1cnc2nc(N)nc(N)c2n1)c1ccc(C(=O)N[C@@H](CCC(=O)O)C(=O)O)cc1 [Methotrexate]    189
CC(C)CC(=O)Nc1n[nH]c2c1CN(C(=O)C1CCN(C)CC1)C2(C)C    281
Nc1ncnc2c1c(I)cn2[C@@H]1O[C@H](CO)[C@@H](O)[C@H]1O    571
C[C@@H]1C[C@H]2[C@@H]3CCC4=CC(=O)C=C[C@]4(C)[C@@]3(F)[C@@H](O)C[C@]2(C)[C@@]1(O)C(=O)CO    710
Nc1cc(C(F)(F)F)c(-c2cc(N3CCOCC3)nc(N3CCOCC3)n2)cn1    538
Cn1cncc1[C@@](N)(c1ccc(Cl)cc1)c1ccc2c(c1)c(-c1cccc(Cl)c1)cc(=O)n2C    392
COc1ccc2c(c1)CCC1C2CCC2(C)C(NCCCCCCN3C(=O)C=CC3=O)CCC12 (stereo not drawn)    547
Nc1nc(Cl)nc2c1ncn2[C@H]1C[C@H](O)[C@@H](CO)O1    265
O=C(NOC[C@H](O)CO)c1ccc(F)c(F)c1Nc1ccc(I)cc1F    109
CC1(C)CCC(C)(C)c2cc(NC(=O)c3ccc(C(=O)O)cc3)ccc21    297
CC(C)C[C@@H](C=O)NC(=O)[C@H](CC(C)C)NC(=O)[C@H](CC(C)C)NC(=O)OCc1ccccc1    452
CC[C@H](CO)Nc1nc(NCc2ccccc2)c2ncn(C(C)C)c2n1    644
Oc1cccc(-c2nc(N3CCOCC3)c3oc4ncccc4c3n2)c1    442
Nc1nc2[nH]cc(CCc3ccc(C(=O)N[C@@H](CCC(=O)O)C(=O)O)cc3)c2c(=O)[nH]1    641
CC(C)(C)c1cc(NC(=O)Nc2ccc(-c3cn4c(n3)sc3cc(OCCN5CCOCC5)ccc34)cc2)no1    536
CCCS(=O)(=O)Nc1ccc(F)c(C(=O)c2c[nH]c3ncc(Cl)cc23)c1F    763
Cn1nnc2c(C(N)=O)ncn2c1=O [Temozolomide]    686

====

# Test system: MV4.11
# assay.protocol: area under dose-response curve (cell viability) (AUC (arbitrary, % viability x log concentration)); higher = less sensitive (more viable)
# test.context: 4 days
Classify as follows. Reported area under dose-response curve greater than or equal to 600: Condition met. Reported area under dose-response curve below: Condition not met.

COc1cc2nccc(Oc3ccc(NC(=O)NC4CC4)c(Cl)c3)c2cc1C(N)=O [E7080]    Condition not met
COc1ccc(-c2cc3c(C)nc(N)nc3n([C@H]3CC[C@H](OCCO)CC3)c2=O)cn1    Condition not met
CN(C)C/C=C/C(=O)Nc1cc2c(Nc3ccc(F)c(Cl)c3)ncnc2cc1O[C@H]1CCOC1 [BIBW 2992]    Condition not met
NC(=O)c1ccc(I)c([N+](=O)[O-])c1 [BSI-201]    Condition met
OCCn1cc(-c2cnc3nnn(Cc4ccc5ncccc5c4)c3n2)cn1    Condition not met
CC/C(=C(\c1ccccc1)c1ccc(OCCN(C)C)cc1)c1ccccc1 [Tamoxifen]    Condition met
